tested on: L1210 leukemia ip in BDF1 mice, survival T/C; assay: NCI In Vivo Anticancer Drug Screen. Data for tumor model L1210 Leukemia (intraperitoneal) in B6D2F1 (BDF1) mice; conditions: endpoint: mean survival time; dose: 200.0 mg/kg/injection; schedule: Q01DX001 (ip); vehicle: carboxymethylcellulose (CMC); higher = longer survival
Inconclusive results and toxic doses are left out.
REPORTED METRIC: T/C

CSc1ccc(OC(=O)Oc2ccc(SC)c(C)c2)cc1C; 92 % of control
C/C(=N\NC(N)=S)C(C)(C)O; 108 % of control
COc1cc(C=Nc2cc(Br)cc(Br)c2)ccc1N(CCCl)CCCl; 124 % of control
O=[N+]([O-])c1c[nH]c2ncnc(Cl)c12; 106 % of control

Prompt line: Reported T/C for O=C1c2ccccc2-c2cccc(Cl)c21 : what is it?
Response line: 93 % of control

Prompt line: Reported T/C for Cn1c(C=O)cc2ccccc21 : what is it?
Response line: 98 % of control

Prompt line: Reported T/C for Nc1cccc2c1-c1ccccc1/C2=N\O : what is it?
Response line: 105 % of control

Prompt line: Reported T/C for CC(=O)c1ccc(OC(=O)Oc2ccc(C(C)=O)cc2)cc1 : what is it?
Response line: 101 % of control

---

tested on: L1210 leukemia ip in BDF1 mice, survival T/C; experiment: NCI In Vivo Anticancer Drug Screen. Data for tumor model L1210 Leukemia (intraperitoneal) in B6D2F1 (BDF1) mice; settings: endpoint: mean survival time; dose: 100.0 mg/kg/injection; schedule: Q04DX003 (ip); vehicle: Klucel (hydroxypropylcellulose) (HPC); higher = longer survival
Inconclusive results and toxic doses are left out.
The following compounds are listed with their measured T/C values.

Clc1ccc(Cl)c(NNc2cc(Cl)ccc2Cl)c1; 98 % of control
O=C(ONC1CCC(CC2CCCCC2)CC1)c1ccccc1 (stereo unspecified); 97 % of control
C=CCC1(CCC)C(=O)NC(=O)NC1=O; 92 % of control
CC(=O)CC(C)=Nc1ccc(Cl)cc1; 96 % of control
O=[N+]([O-])c1cccc([I+]c2cccc([N+](=O)[O-])c2)c1; 96 % of control
CCOC(=O)Oc1c(OC)cc(C(=O)O[C@@H]2C[C@@H]3CN4CCc5c([nH]c6cc(OC)ccc56)[C@H]4C[C@@H]3[C@H](C(=O)OC)[C@H]2OC)cc1OC; 95 % of control
c1ccc(CC2NC2c2ccccc2)cc1 (stereo unspecified); 96 % of control
ClC1=C(Cl)C(Cl)(Cl)C(Cl)(Cl)C1(Cl)Cl; 104 % of control
CC1(C)C2CCC1(C)C(NCc1cc(Cl)cc(Cl)c1O)C2 (stereo unspecified); 92 % of control
O=C(NC(=S)Nc1ccc(Cl)c(Cl)c1)c1cccc([N+](=O)[O-])c1; 93 % of control

Prompt line: Reported T/C for CCC(=O)Oc1ccc(OCc2ccccc2)cc1 : what is it?
Response line: 95 % of control

---

test system: L1210 leukemia ip in BDF1 mice, survival T/C; experiment: NCI In Vivo Anticancer Drug Screen. Data for tumor model L1210 Leukemia (intraperitoneal) in B6D2F1 (BDF1) mice; conditions: endpoint: mean survival time; dose: 200.0 mg/kg/injection; schedule: Q01DX001 (ip); vehicle: carboxymethylcellulose (CMC); higher = longer survival
Toxic doses and inconclusive results are not listed.
REPORTED METRIC: T/C

Field: example entries. Status: answers known.
CC(C)c1nc(CO)c(CO)n1Cc1ccccc1; 108 % of control
CSCCC(N)C(=O)O (configuration not stated); 95 % of control
NNc1ccc2cccc(O)c2n1; 93 % of control
COc1ccc2nc(N=Nc3c(N)nc(N)[nH]c3=O)sc2c1; 106 % of control
CC(=O)c1cc(-c2ccccc2)nc2c(C)c(Cl)ccc12; 92 % of control

Prompt line: Reported T/C for O=S(=O)(O)SCCCNc1ncnc2ccccc12 : what is it?
Response line: 105 % of control

Prompt line: Reported T/C for CC(=O)Nc1cc(F)c2c(c1)Cc1cc(F)ccc1-2 : what is it?
Response line: 93 % of control

---

test system: L1210 leukemia ip in BDF1 mice, survival T/C; assay: NCI In Vivo Anticancer Drug Screen. Data for tumor model L1210 Leukemia (intraperitoneal) in B6D2F1 (BDF1) mice; details: endpoint: mean survival time; dose: 100.0 mg/kg/injection; schedule: Q04DX002 (ip); vehicle: saline with Tween-80; higher = longer survival
Toxic doses and inconclusive results are not listed.
The following compounds are listed with their measured T/C values.

CCCCN=Cc1ccc(Cl)cc1; 90 % of control
Nc1cccc(CO)c1; 104 % of control

Prompt line: Reported T/C for c1ccc2c(c1)NC(OC1CCCCC1)S2 (configuration not stated) : what is it?
Response line: 101 % of control

Prompt line: Reported T/C for C1CCC(C2CCCC2)C1 : what is it?
Response line: 100 % of control

Prompt line: Reported T/C for CSc1ccc(OC(=O)Nc2ccc(Cl)cc2)cc1 : what is it?
Response line: 98 % of control

Prompt line: Reported T/C for COc1n[n+]([O-])c(Cl)c(C)c1[N+](=O)[O-] : what is it?
Response line: 105 % of control

Prompt line: Reported T/C for O=[N+]([O-])c1ccc(OC(=S)N2CCOCC2)cc1 : what is it?
Response line: 104 % of control

Prompt line: Reported T/C for COc1ccc(C(N)=O)cc1 : what is it?
Response line: 94 % of control

---

The following compounds are listed with their measured T/C values.
system: L1210 leukemia ip in BDF1 mice, survival T/C; experiment: NCI In Vivo Anticancer Drug Screen. Data for tumor model L1210 Leukemia (intraperitoneal) in B6D2F1 (BDF1) mice; details: endpoint: mean survival time; dose: 100.0 mg/kg/injection; schedule: Q04DX003 (ip); vehicle: Klucel (hydroxypropylcellulose) (HPC); higher = longer survival
Inconclusive results and toxic doses are left out.

Cc1ccc(C(=O)O)cc1[N+](=O)[O-]; 95 % of control
CCCCCCCCNC1=C(OC)C(=O)C(NCCCCCCCC)=C(OC)C1=O; 96 % of control
NC1CCC2CCCCC2C1 (stereo not given); 94 % of control
COc1ccccc1N1CCN(CCCC(=O)c2ccc(F)cc2)CC1; 116 % of control
CN(C)c1ccc(C(=C(C#N)C#N)c2ccc(N(C)C)cc2)cc1; 95 % of control

Prompt line: Reported T/C for O=[N+]([O-])c1ccc2c(c1)C(C(Cl)(Cl)Cl)OC(C(Cl)(Cl)Cl)O2 (stereo not given) : what is it?
Response line: 96 % of control

Prompt line: Reported T/C for CNc1ccccc1Cc1ccccc1 : what is it?
Response line: 103 % of control

Prompt line: Reported T/C for O=C(c1cccc2ccccc12)N(c1ccccc1)c1ccccc1 : what is it?
Response line: 103 % of control

Prompt line: Reported T/C for O=C1CCC(N2C(=O)c3ccccc3C2=O)C(=O)N1 (stereo not given) : what is it?
Response line: 98 % of control

Prompt line: Reported T/C for O=C1CCC(OC(=O)c2ccccc2)CC1 : what is it?
Response line: 101 % of control

---

system: L1210 leukemia ip in BDF1 mice, survival T/C; test: NCI In Vivo Anticancer Drug Screen. Data for tumor model L1210 Leukemia (intraperitoneal) in B6D2F1 (BDF1) mice; settings: endpoint: mean survival time; dose: 400.0 mg/kg/injection; schedule: Q04DX003 (ip); vehicle: other; higher = longer survival
Toxic doses and inconclusive results are not listed.
REPORTED METRIC: T/C

Field: example entries. Status: answers known.
CNc1ccc(OC)cc1; 104 % of control
Cc1cc2c(c(=O)n1C)COC2=O; 98 % of control

Prompt line: Give the reported T/C for CC1=CC(=O)C=CC1(C)C(Cl)(Cl)Cl (stereo not given) (system: L1210 leukemia ip in BDF1 mice, survival T/C).
Response line: 101 % of control

Prompt line: Give the reported T/C for ClCCN(CCCl)c1ccc(/C=C\c2ccnc3ccccc23)cc1 (system: L1210 leukemia ip in BDF1 mice, survival T/C).
Response line: 98 % of control

Prompt line: Give the reported T/C for CC1(C)C=CN2C(=O)C3=CCCN3C(=O)C2CC12Nc1ccccc1C2=O (stereo not given) (system: L1210 leukemia ip in BDF1 mice, survival T/C).
Response line: 93 % of control

---

The following molecules are listed with their measured T/C values.
system: L1210 leukemia ip in BDF1 mice, survival T/C; assay: NCI In Vivo Anticancer Drug Screen. Data for tumor model L1210 Leukemia (intraperitoneal) in B6D2F1 (BDF1) mice; conditions: endpoint: mean survival time; dose: 75.0 mg/kg/injection; schedule: Q04DX003 (ip); vehicle: saline; higher = longer survival
Toxic doses and inconclusive results are not listed.

Field: example entries. Status: answers known.
CC(C)C(NC(=O)OCc1ccccc1)C(=O)O (centres undefined); 101 % of control
O=C(CCCCC(=O)Nc1ccc(C2=NCCN2)cc1)Nc1ccc(C2=NCCN2)cc1; 123 % of control
CNc1ccc(C(=O)O)c(Cl)c1; 97 % of control

Here's the next entry for you.
Prompt line: Reported T/C for Oc1ccccc1O.[O-]c1ccccc1[O-].[O-]c1ccccc1[O-].[O]=[V+2] : what is it?
Response line: 97 % of control

Values compiled from PubChem BioAssay AID248.
